Data provenance: patent US20250313563A1

Target: GSK3b (GST-full length GSK3b) (Homo sapiens (Human), UniProt P49841)
Sequence (P49841 whole entry): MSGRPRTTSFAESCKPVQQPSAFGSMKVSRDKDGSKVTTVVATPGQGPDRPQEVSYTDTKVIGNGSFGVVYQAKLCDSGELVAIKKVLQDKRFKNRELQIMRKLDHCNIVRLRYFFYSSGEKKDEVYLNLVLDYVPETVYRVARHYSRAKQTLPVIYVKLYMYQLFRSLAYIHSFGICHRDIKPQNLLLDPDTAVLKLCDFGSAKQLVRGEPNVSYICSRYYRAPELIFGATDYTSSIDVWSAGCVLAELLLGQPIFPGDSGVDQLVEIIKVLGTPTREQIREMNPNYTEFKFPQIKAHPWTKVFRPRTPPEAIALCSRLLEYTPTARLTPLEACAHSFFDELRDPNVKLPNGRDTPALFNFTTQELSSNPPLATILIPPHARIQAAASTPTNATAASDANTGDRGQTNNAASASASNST
Test: GSK3b TR-FRET kinase assay
Format: biochemical
Settings: 1 nM GSK3b, 2 μM ATP, 30 minute preincubation, Table 16; read-out: GSK3-B TR-FRET BIOCHEMICAL (TR-FRET)
Outcome Measure: IC50

# example entries with known answers
**Q:** Fill in: IC50 of CCC1(c2cccc(-c3cnco3)c2)C2=C(CC(C)(C)CC2=O)Nc2n[nH]cc21 (stereo not drawn) is ___
**A:** 100 to 1000 nM

**Q:** Fill in: IC50 of Cc1csc(S(=O)(=O)N2CCC3(CC2)C2=C(CC(C)(C)CC2=O)Nc2n[nH]cc23)n1 is ___
**A:** ≤ 100 nM

**Q:** Fill in: IC50 of CC[C@]1(c2ccccc2)C2=C(CC(C)(C)[C@@H](F)C2=O)Nc2n[nH]cc21 is ___
**A:** > 5000 nM

**Q:** Fill in: IC50 of CC1(C)CC(=O)C2=C(C1)Nc1n[nH]cc1[C@]21C[C@@H](OCc2ccccc2)C1 is ___
**A:** 100 to 1000 nM

**Q:** Fill in: IC50 of CC1(C)CC(=O)C2=C(C1)Nc1n[nH]cc1C21CCN(S(=O)(=O)c2ccc3c(c2)CCO3)CC1 is ___
**A:** ≤ 100 nM

More entries:
**Q:** Fill in: IC50 of CCC1(c2cccc(C(F)(F)F)c2)C2=C(CN(Cc3ccccc3)C2=O)Nc2n[nH]cc21 (stereo not drawn) [Compound 929388] is ___
**A:** 100 to 1000 nM

**Q:** Fill in: IC50 of CCC1(c2cccc(S(=O)(=O)C3COC3)c2)C2=C(CC(C)(C)CC2=O)Nc2n[nH]cc21 (stereo not drawn) [Compound 945998] is ___
**A:** ≤ 100 nM

**Q:** Fill in: IC50 of CCC1(c2cccc(OC(C)C)c2)C2=C(CC(C)(C)CC2=O)Nc2[nH]nc(C(F)(F)F)c21 (stereo not drawn) is ___
**A:** ≤ 100 nM

====

Measured pIC50 by item
Biological target: GSK3α (GST-full length GSK3α) (Homo sapiens (Human))
Sequence (P49840 whole entry): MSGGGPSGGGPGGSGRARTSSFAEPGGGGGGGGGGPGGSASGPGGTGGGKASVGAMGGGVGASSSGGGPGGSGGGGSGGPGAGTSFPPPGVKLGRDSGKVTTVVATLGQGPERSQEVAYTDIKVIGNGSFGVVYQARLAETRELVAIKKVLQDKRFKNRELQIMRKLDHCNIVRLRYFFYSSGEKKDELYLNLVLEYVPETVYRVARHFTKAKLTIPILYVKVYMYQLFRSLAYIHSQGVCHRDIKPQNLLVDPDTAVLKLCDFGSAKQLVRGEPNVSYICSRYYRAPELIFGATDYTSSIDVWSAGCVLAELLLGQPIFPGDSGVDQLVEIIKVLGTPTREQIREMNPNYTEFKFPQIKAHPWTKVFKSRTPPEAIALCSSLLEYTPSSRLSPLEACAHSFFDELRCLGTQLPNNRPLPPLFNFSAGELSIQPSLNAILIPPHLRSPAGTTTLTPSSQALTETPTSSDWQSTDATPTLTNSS
Test: GSK3α TR-FRET kinase assay
Type: biochemical
Conditions: 1 nM GSK3α, 4 μM ATP, 30 minute preincubation, Table 16; read-out: GSK3-A TR-FRET BIOCHEMICAL (TR-FRET)
Procedure: TR-FRET Assay: The assay was performed in a white, 384 well, low volume, flat bottom plate (Grenier). After a 30 minute preincubation in assay buffer with the indicated concentration of compound, the kinase activity was initiated by the addition of the substrates. […] After 60 min at room temperature the plate was read on Envision plate reader using Ex: 340 nm, Em: 615 nm and […]. The normalized 665/615 Signal ratio versus log compound concentration was analyzed by XLFIT to yield IC50 values.
pIC50: −log10 of the molar value.

**Q:** Query pIC50 on GSK3α (GST-full length GSK3α) (Homo sapiens (Human)) for CCC1(c2cccc(C(F)(F)F)c2)C2=C(CC3(CCNC3=O)CC2=O)Nc2n[nH]cc21 (stereo not shown) [Compound 950331]
**A:** 6.00 to 7.00

More entries:
**Q:** Query pIC50 on GSK3α (GST-full length GSK3α) (Homo sapiens (Human)) for CCC1(c2cccc(C(F)(F)C(F)(F)F)c2)C2=C(CC(C)(C)CC2=O)Nc2n[nH]cc21 (stereo not shown) [Compound 948615]
**A:** ≥ 7.00

**Q:** Query pIC50 on GSK3α (GST-full length GSK3α) (Homo sapiens (Human)) for CCC1(c2cccc(S(=O)(=O)C3CC3)c2)C2=C(CC(C)(C)CC2=O)Nc2n[nH]c(C(F)(F)F)c21 (stereo not shown)
**A:** ≥ 7.00
